Compiled literature pIC50, tested on Cytochrome P450 2D6 (Homo sapiens).
pIC50: −log10 of the molar value.

Recorded results for 3 compounds are shown here.
{"COMPOUND": "Cc1cc(-c2ccc3c(c2)-c2nnc(Oc4ccccc4Cl)n2CCO3)ccn1", "pIC50": 4.61}
{"COMPOUND": "Nc1nc2ccc(C(=O)NCc3ccccc3)cc2s1", "pIC50": "4.60 to 5.00"}
{"COMPOUND": "c1cn2cc(-c3ccc4cn[nH]c4c3)nc(Nc3ccc(N4CCOCC4)cc3)c2n1", "pIC50": "< 5.00"}

Q: Could you share what pIC50 was measured for O=C(O)c1cc2occc2[nH]1 , tested on Cytochrome P450 2D6 (Homo sapiens)?
Ans: < 5.00

Q: Quick check: pIC50 on Cytochrome P450 2D6 (Homo sapiens), item Nc1nc2c(O)cc(C(=O)NCc3ccccc3)cc2s1 ?
Ans: > 5.00

Q: Query the reported pIC50 for Cytochrome P450 2D6 (Homo sapiens); item: O=C(O)[C@H](Cc1ccc(-n2c(-c3cccnc3)nc3cccnc32)cc1)NC1=C(Br)C(=O)C12CCCCC2
Ans: < 4.00

Q: Observed pIC50 on Cytochrome P450 2D6 (Homo sapiens) for Cc1cccc(C)c1CNc1nccn2c(C)c(C)cc12 , please.
Ans: > 7.00

Q: Can you look up pIC50 on Cytochrome P450 2D6 (Homo sapiens) for CO[C@@H](C)c1c(NC(=O)Nc2cnc(-n3nccn3)c(Cl)c2)cnc2cc(Cl)nn12 ?
Ans: < 4.70

Q: // map Cc1sc2ncnc(N3CCC(C(=O)Nc4ccc(S(N)(=O)=O)cc4)CC3)c2c1C to recorded pIC50 (system: Cytochrome P450 2D6 (Homo sapiens))
Ans: 5.47

Q: What reported pIC50 corresponds to O=C(Nc1ccc(Cl)cc1)C(=O)N1CCC(c2ccnc3ccc(F)cc23)CC1 on Cytochrome P450 2D6 (Homo sapiens)?
Ans: < 5.00

Q: Value wanted: pIC50 (Cytochrome P450 2D6 (Homo sapiens)) of entry CN(O)C(=O)c1cc2c(CN3CCC[C@H]3C(N)=O)cn(Cc3ccc(F)cc3)c2cn1
Ans: < 4.52

Q: Recall the recorded pIC50 for CC(=O)N[C@@H](C)/C=C/c1cnc(Oc2ccc(OC(C)C)cc2)s1 with Cytochrome P450 2D6 (Homo sapiens) and state it.
Ans: < 4.70

====

Note to self: these molecules have pIC50 reported for UniProt P10635 in various publications.
pIC50: −log10 of the molar value.

Some entries whose results are on file:
{"MOLECULE": "O=C(O)CCC1(c2ccc(C(F)(F)F)cc2)CCCN(C(=O)Nc2ccc(Cl)cc2)C1 (centres undefined)", "RECORDED RESULT": "< 5.00"}
{"MOLECULE": "Cc1ncc(-c2ccc([C@H](C)N3CC[C@](CC(C)(C)O)(c4ccccc4)OC3=O)cc2)cn1", "RECORDED RESULT": "< 4.30"}
{"MOLECULE": "CS(C)(=O)=Nc1ccc(-c2ccc(-c3nc4cc(O[C@@H]5CO[C@H]6[C@@H]5OC[C@H]6O)[nH]c4cc3F)cc2)cc1", "RECORDED RESULT": "< 5.00"}
{"MOLECULE": "CC(C)N1CCC(Oc2cc3cc4n(c3cc2Br)[C@@H](C)CN(CC2CC2)C4=O)CC1", "RECORDED RESULT": "< 4.30"}

Q: Given C[C@H](c1nc2ncccc2c(=O)n1-c1ccc(Cl)cc1)N(CC1CCS(=O)(=O)CC1)C(=O)Cc1ccc(F)c(C(F)(F)F)c1 , state its recorded pIC50.
Ans: < 5.00

Q: Can you share its pIC50? I mean this molecule: Cc1cc(N2CC[C@@H](N3CCC[C@@H]3C)C2)ccc1NC(=O)c1cc(F)ccc1C
Ans: < 4.52

Q: So what's the measured pIC50 for this one? O=C(O)c1ccc2ccc(C(=O)c3ccc(C(F)(F)F)cc3)c-2cc1
Ans: < 4.30

Q: What value of pIC50 has been reported for the following molecule? COc1ccc(C2(OCC(F)(F)F)Sc3ccccc3-n3c2noc3=O)cc1 (centres undefined)
Ans: < 4.70

Q: Requested field: pIC50. Item: CN([C@@H]1CCC2=C(C1)C1C=CC=CC1N2CC(=O)O)S(=O)(=O)c1ccc(F)cc1 (some centres undefined)
Ans: < 4.52

====

pIC50: −log10 of the molar value.
From various publications: pIC50 for Cytochrome P450 2D6 (Homo sapiens, UniProt P10635).
REPORTED METRIC: pIC50

{"MOLECULE": "CCN(CC(O)(CNC(=O)c1cnn(-c2ccc(F)cc2)c1N)C(F)(F)F)C(=O)c1c(F)cccc1F (centres undefined)", "STUDY SYSTEM": "Cytochrome P450 2D6 (Homo sapiens, UniProt P10635)", "pIC50": 4.13}

1 = CCc1c(CCCC(=O)O)cccc1-c1cnc(-c2ccc(OC(C)C)c(C#N)c2)nc1
2 = Cc1ncccc1C(=O)Nc1nc2cc(C(N)=O)ccc2n1CCCCNC(=O)OC(C)(C)C
3 = COc1cc(C2=NC(c3ccc(Cl)cc3F)C(C(=O)Nc3cc4cn[nH]c4cc3F)=C(C)N2)ccn1 (centres undefined)
Q: Please rank these molecules by pIC50 in descending order. Returns: the labels arranged in the requested order.
Ans: 3, 1, 2

====

Compiled literature IC50, tested on Cytochrome P450 2D6 (Homo sapiens, UniProt P10635).
Sequence (P10635 whole entry): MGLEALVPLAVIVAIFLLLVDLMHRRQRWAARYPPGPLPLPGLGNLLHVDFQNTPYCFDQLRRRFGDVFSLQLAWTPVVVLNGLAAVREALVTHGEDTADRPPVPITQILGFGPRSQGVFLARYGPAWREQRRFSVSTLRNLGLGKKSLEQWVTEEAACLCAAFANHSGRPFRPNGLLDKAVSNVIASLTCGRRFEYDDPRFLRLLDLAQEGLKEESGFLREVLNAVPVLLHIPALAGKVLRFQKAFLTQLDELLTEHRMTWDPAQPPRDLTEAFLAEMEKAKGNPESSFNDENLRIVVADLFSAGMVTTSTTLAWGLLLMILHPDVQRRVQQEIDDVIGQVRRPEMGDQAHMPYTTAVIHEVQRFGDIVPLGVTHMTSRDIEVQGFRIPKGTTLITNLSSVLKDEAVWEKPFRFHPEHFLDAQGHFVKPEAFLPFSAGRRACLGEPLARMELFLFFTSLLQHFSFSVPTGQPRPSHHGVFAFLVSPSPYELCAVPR

Solved cases below.
{"COMPOUND": "c1cncc(-c2cccs2)c1", "IC50": "> 400 µM"}
{"COMPOUND": "C[C@@]1(C(=O)Nc2ccc(F)nc2)CCCN1c1nc(Nc2cc(C3CC3)n[nH]2)c2cccn2n1", "IC50": "> 40 µM"}
{"COMPOUND": "CCN(CC)CCNc1ccc(CO)c2sc3ccccc3c(=O)c12", "IC50": "1.5 µM"}

Moving on to another compound below.
Q: Quick check: IC50 on Cytochrome P450 2D6 (Homo sapiens, UniProt P10635), item CNC(=O)CCC1(c2ccccc2)CCCN(C(=O)Nc2ccc(Cl)cc2)C1 (centres undefined) ?
Ans: > 10 µM

====

// compounds with reported IC50 on Cytochrome P450 2D6 (Homo sapiens, UniProt P10635), multi-publication

See these solved cases before continuing.
{"COMPOUND": "c1ccc(COc2cccc(-c3nc4sccn4c3-c3ccncn3)c2)cc1", "IC50": "> 90 µM"}
{"COMPOUND": "Cc1cc(-c2ccc(NS(=O)(=O)c3cc(C(F)(F)F)cc(C(F)(F)F)c3)cc2)ccn1", "IC50": "2 µM"}
{"COMPOUND": "CS(=O)(=O)NCc1nc2cnc3[nH]ccc3c2n1[C@@H]1C[C@H]2CC[C@@H]1C2", "IC50": "> 10 µM"}

Q: Fill in the recorded IC50 for this compound, with Cytochrome P450 2D6 (Homo sapiens, UniProt P10635) as test system: CC(C)S(=O)(=O)NC[C@H]1CC[C@H](NC(=O)CN2CCc3cc(Cl)ccc32)CC1
Ans: > 40 µM

Q: // fetch Cytochrome P450 2D6 (Homo sapiens, UniProt P10635) IC50 for Nc1nc2ccc(C(=O)NCCc3c[nH]c4ccccc34)cc2s1
Ans: > 25 µM

Q: Requested read-out IC50, target or system Cytochrome P450 2D6 (Homo sapiens, UniProt P10635), entry CN(C)CCN(C)[C@H]1Cc2c(Cl)cc(Cl)cc2[C@@H]1Oc1ccc(S(C)(=O)=O)cc1
Ans: < 0.3 µM

Q: Write down the reported IC50 of O=S(=O)(Nc1ccc(-c2ccncc2)cc1)c1cc(Cl)cc(Cl)c1 , test system: Cytochrome P450 2D6 (Homo sapiens, UniProt P10635).
Ans: 0.2 µM

Q: Identify the measured IC50 of Cc1c(-c2noc(-c3ccc(OC(C)C)c(C#N)c3)n2)ccc2c1CCN(C(CO)CO)C2 for Cytochrome P450 2D6 (Homo sapiens, UniProt P10635).
Ans: > 50 µM

Q: For the record CN(C)C1CCN(C(=O)c2ccc(NC(=O)Nc3ccc(-c4nc(N5CCOCC5)nc(N5CCOCC5)n4)cc3)cc2)CC1 , what value of IC50 is listed for Cytochrome P450 2D6 (Homo sapiens, UniProt P10635)?
Ans: > 50 µM

Q: Query the reported IC50 for Cytochrome P450 2D6 (Homo sapiens, UniProt P10635); item: CCc1nc2c(Cc3ccc(C(=O)NO)cc3)cccc2c(=O)n1CCc1ccccc1
Ans: > 10 µM

Q: Under Cytochrome P450 2D6 (Homo sapiens, UniProt P10635): IC50 value of CC(C)(O)Cn1cc(-c2nc(C3(c4ccc(-c5cnc(N)nc5)cc4)CCC3)no2)cn1 ?
Ans: 3 µM

====

pIC50: −log10 of the molar value.
Compiled literature pIC50, tested on Cytochrome P450 2D6 (Homo sapiens).
REPORTED METRIC: pIC50

{"MOLECULE": "CCN(CC(O)(CNC(=O)c1cnn(-c2ccc(F)cc2)c1N)C(F)(F)F)C(=O)c1ccccc1Cl (stereo in doubt; 13e)", "STUDY SYSTEM": "Cytochrome P450 2D6 (Homo sapiens)", "pIC50": 4.47}
{"MOLECULE": "C[C@H](Nc1ccc(-c2ccnn2C)nc1)C(=O)Nc1ccc(-c2cccnc2)nc1", "STUDY SYSTEM": "Cytochrome P450 2D6 (Homo sapiens)", "pIC50": 5.48}

a = O=C(/C=C/c1cccnc1)c1ccc2ccccc2c1
b = Cc1cc(Nc2cc(C)c(C#N)c(NCCOc3ccccc3F)n2)n[nH]1
c = CCc1ccc(OCCNc2nc(Nc3cc(C)[nH]n3)cc(C)c2C#N)cn1
d = CSc1cc2c(cc1C(F)(F)F)N(C(=O)Nc1cccnc1)CC2
Q: Which order do these items take when sorted by rising pIC50? List them. Provide the ranking by listing each label in its place in the requested order.
Ans: c, b, a, d
(c: 4.34, b: 5.11, a: 5.36, d: 6.96)
